- Test method notes: Mouse oral PK and tissue distribution, fed state
- Type: in vivo
- Protocol conditions: single oral dose 10 mg/kg, fed mice
- Description: Given the increased packaging of the CF3-modified lipids into CMs compared to their ω-unmodified congeners, we selected these compounds for PK studies in mice. We hypothesized that, following oral administration, our modified prodrugs would favor CM-mediated transport into the lymphatics over absorption into mesenteric veins feeding into the portal system. […] Concentrations of prodrug were quantified using LC-MS/MS after tissue homogenization, extraction, and sample preparation. […]
Exercise: for every item that follows, state its recorded Liver AUC0-18h.

Problem: Can you look up the measured Liver AUC0-18h of C[C@H](Cn1cnc2c(N)ncnc21)OCP(=O)(O)OCCCOCCCCCCCCCCCCCCCCCC(F)(F)F [15b] for me?
Result: 133,000 h*ng/g

Problem: Dear colleague, I am looking for the recorded Liver AUC0-18h of the following compound: C[C@H](Cn1cnc2c(N)ncnc21)OCP(=O)(O)OC[C@H](COCCCCCCCCCCCCCCCCCC(F)(F)F)OCc1ccccc1 [21b]
Result: 218,000 h*ng/g

Problem: Find the recorded Liver AUC0-18h belonging to C[C@H](Cn1cnc2c(N)ncnc21)OCP(=O)(O)OCCCOCCCCCCCCCCCCCCCC(F)(F)F [15a] and report it.
Result: 190,000 h*ng/g

Problem: Looking for the measured Liver AUC0-18h of CCCCCCCCCCCCCCCCOCCCOP(=O)(O)CO[C@H](C)Cn1cnc2c(N)ncnc21 [TXL, hexadecyloxypropyl (HDP)-TFV, reference compound] , can you help?
Result: 25,600 h*ng/g

Problem: # get_value(readout='Liver AUC0-18h', item= C[C@H](Cn1cnc2c(N)ncnc21)OCP(=O)(O)OC[C@H](COCCCCCCCCCCCCCCCC(F)(F)F)OCc1ccccc1 [21a] )
Result: 564,000 h*ng/g
